These data points were gathered from patent US8802597B2.

Plant response rating, Barnyardgrass listing for selected molecules.
- Test system: barnyardgrass (Echinochloa crus-galli)
- TEST PROTOCOL: Test A pre/postemergence
- Assay type: in vivo
- CONDITION NOTES: Preemergence, 500 g ai/ha; 0 to 100 scale where 0 is no effect and 100 is complete control; approximately ten days
OUTCOME MEASURE: Plant response rating, Barnyardgrass

>>> quantitative_result("CS(=O)(=O)NC(=O)c1nc(-c2ccc(Cl)cc2)nc(N)c1Cl [Compound 131]")
0
>>> quantitative_result("CCOC(=O)c1nc(-c2ccc(C)cc2)nc(N)c1Cl [Compound 62]")
45
>>> quantitative_result("CCOC(=O)c1nc(-c2ccc(OC(F)(F)F)cc2)nc(N)c1Cl [Compound 103]")
0
>>> quantitative_result("CCOC(=O)c1nc(-c2cccc(Cl)c2)nc(N)c1Cl [Compound 100]")
0
>>> quantitative_result("COC(=O)COc1nc(C2CC2)nc(N)c1Cl [Compound 112]")
10
>>> quantitative_result("COC(=O)c1nc(-c2ccc([S+](C)[O-])cc2)nc(N)c1Cl (stereo not shown) [Compound 123]")
0
>>> quantitative_result("Nc1nc(C2CC2)nc(C(=O)OCc2ccc(Cl)cc2)c1Cl [Compound 80]")
80
>>> quantitative_result("CCOC(=O)c1nc(-c2ccc(Cl)c(Cl)c2)nc(N)c1Br [Compound 66]")
0
>>> quantitative_result("CCOC(=O)c1nc(-c2ccc(CC)cc2)nc(N)c1Cl [Compound 99]")
0
>>> quantitative_result("Nc1nc(-c2ccc(F)cc2)nc(C(=O)O)c1Cl [Compound 90]")
35

---

- System: common (oilseed) sunflower (Helianthus annuus)
- TEST PROTOCOL: Test C pre/postemergence
- Type: in vivo
- CONDITION NOTES: Helianthus annuus, pre-emergence, Preemergence, 250 g ai/ha; scale 0 to 100; read-out: Plant response rating, Sunflower
OUTCOME MEASURE: pest or weed control at 250 g/ha (%)

>>> quantitative_result("CNc1nc(C2CC2)nc(C(=O)OC)c1Br")
100
>>> quantitative_result("Nc1nc(C2CC2)nc(C=O)c1Br")
70
>>> quantitative_result("COC(=O)c1nc(C2CC2)nc(N)c1Br")
100
>>> quantitative_result("CCOC(=O)c1nc(C2CC2)nc(N)c1F")
90
>>> quantitative_result("Nc1nc(C2CC2)nc(C(=O)OCc2ccccc2)c1Br")
100

---

- Tested on: crabgrass (Digitaria sanguinalis)
- TEST PROTOCOL: Test A pre/postemergence
- Type: in vivo
- CONDITION NOTES: Postemergence, 500 g ai/ha; 0 to 100 scale (0 no effect, 100 complete control)
OUTCOME MEASURE: Plant response rating, Crabgrass

>>> quantitative_result("COC(=O)COc1nc(C2CC2)nc(N)c1Cl")
0
>>> quantitative_result("CCOC(=O)c1nc(-c2ccc(CC)cc2)nc(N)c1Cl")
0
>>> quantitative_result("COC(=O)c1nc(-c2ccc(C)c(F)c2)nc(N)c1Cl")
0
>>> quantitative_result("CS(=O)(=O)NC(=O)c1nc(-c2ccc(Cl)cc2)nc(N)c1Cl")
30
>>> quantitative_result("CCOC(=O)C(O)c1nc(C2CC2)nc(N)c1Br (stereo not shown)")
10
>>> quantitative_result("COC(=O)COC(=O)c1nc(C2CC2)nc(N)c1Cl")
85
>>> quantitative_result("Nc1nc(C2CC2)nc(C(=O)OCCCOC(=O)c2nc(C3CC3)nc(N)c2Cl)c1Cl")
25

---

Plant response rating, Crabgrass listing for selected compounds.
- Test system: crabgrass (Digitaria sanguinalis)
- TEST PROTOCOL: Test A pre/postemergence
- Format: in vivo
- CONDITION NOTES: Preemergence, 500 g ai/ha; 0 to 100 scale where 0 is no effect and 100 is complete control; approximately ten days
OUTCOME MEASURE: Plant response rating, Crabgrass

>>> quantitative_result("CCOC(=O)c1nc(-c2ccc(C)cc2)nc(N)c1Cl")
60
>>> quantitative_result("Nc1nc(-c2ccc(F)cc2)nc(C(=O)O)c1Cl")
50
>>> quantitative_result("CCCCOCCOC(=O)c1nc(C2CC2)nc(N)c1Cl")
90
>>> quantitative_result("Nc1nc(C2CC2)nc(C(=O)OCCCOC(=O)c2nc(C3CC3)nc(N)c2Cl)c1Cl")
85
>>> quantitative_result("COC(OC)c1nc(-c2ccc(I)cc2)nc(N)c1Cl")
0
>>> quantitative_result("COC(=O)c1nc(-c2ccc(I)cc2)nc(N)c1Br")
0
>>> quantitative_result("CCOC(=O)c1nc(-c2ccc(Cl)c(Cl)c2)nc(N)c1Cl")
35
>>> quantitative_result("CC(C)OC(=O)c1nc(-c2ccc(Cl)cc2)nc(N)c1Cl")
0
>>> quantitative_result("CCOC(=O)c1nc(-c2ccc(C(F)(F)F)cc2)nc(N)c1Br")
0
>>> quantitative_result("COC(=O)c1nc(-c2ccc(F)cc2)nc(N)c1Br")
0
>>> quantitative_result("COC(=O)c1nc(-c2cccc(C)c2)nc(N)c1Cl")
25
>>> quantitative_result("CCOC(=O)c1nc(-c2ccc(OC)cc2)nc(N)c1Cl")
15
>>> quantitative_result("CCOC(=O)c1nc(-c2cccc(C(F)(F)F)c2)nc(N)c1Cl")
5
>>> quantitative_result("CCOC(=O)c1nc(-c2ccc(C)c(C)c2)nc(N)c1Br")
20
>>> quantitative_result("COC(=O)c1nc(-c2ccc(SC)cc2)nc(N)c1Cl")
0
>>> quantitative_result("CCOC(=O)c1nc(-c2ccc(I)cc2)nc(N)c1Cl")
45
>>> quantitative_result("CCOC(=O)c1nc(-c2ccc(CC)cc2)nc(N)c1Cl")
0
>>> quantitative_result("COC(=O)c1nc(-c2ccc(C)cc2)nc(N)c1Br")
0
>>> quantitative_result("COC(=O)c1nc(-c2ccc(C)cc2)nc(N)c1Cl")
15
>>> quantitative_result("CCCCOC(=O)c1nc(C2CC2)nc(N)c1Cl")
75
>>> quantitative_result("CCOC(=O)c1nc(-c2ccc(Cl)c(Cl)c2)nc(N)c1Br")
15
>>> quantitative_result("COC(=O)c1nc(-c2ccc([S+](C)[O-])cc2)nc(N)c1Cl (stereo not shown)")
0
>>> quantitative_result("Cc1ccc(-c2nc(N)c(Cl)c(C(=O)O)n2)cc1F")
75
>>> quantitative_result("Cc1ccc(-c2nc(N)c(Cl)c(C(=O)O)n2)cc1")
75
>>> quantitative_result("CCCOC(=O)c1nc(-c2ccc(Cl)cc2)nc(N)c1Cl")
0

---

- System: lambsquarters (Chenopodium album)
- TEST PROTOCOL: Test D pre/postemergence
- Type: in vivo
- CONDITION NOTES: Preemergence, 62 g ai/ha, scale 0 to 100 (100 = complete control)
OUTCOME MEASURE: Plant response rating, Lambsquarters

>>> quantitative_result("COC(=O)c1nc(C2CC2)nc(N)c1Br")
95
>>> quantitative_result("COC(=O)c1nc(C2CC2)nc(NO)c1Br")
65
>>> quantitative_result("CCOC(=O)c1nc(C2CC2)nc(N)c1Cl")
100
>>> quantitative_result("CCOC(=O)Cc1nc(C2CC2)nc(N=CN(C)C)c1Br")
60

---

- System: yellow nutsedge (Cyperus esculentus)
- TEST PROTOCOL: Test C pre/postemergence
- Type: in vivo
- CONDITION NOTES: Cyperus, pre-emergence; Preemergence, 62 g ai/ha; scale 0 to 100, 0 no effect, 100 complete control; read-out: Plant response rating, Nutsedge, Yellow
OUTCOME MEASURE: pest or weed control at 62 g/ha (%)

>>> quantitative_result("CCOC(=O)c1nc(C2CC2)nc(N)c1Br")
0
>>> quantitative_result("Nc1nc(-c2ccc(Br)cc2)nc(C(=O)O)c1Cl")
60
>>> quantitative_result("Nc1nc(C2CC2)nc(C(=O)O)c1Br")
0
>>> quantitative_result("COC(=O)c1nc(C(C)C)nc(N)c1Br")
0
>>> quantitative_result("CCOC(=O)c1nc(C2CC2)nc(N)c1F")
0

---

- Tested on: giant foxtail (Setaria faberii)
- TEST PROTOCOL: Test B pre/postemergence
- Type: in vivo
- CONDITION NOTES: Postemergence, 125 g ai/ha; scale 0 to 100 (0 no effect, 100 complete control)
Entries whose Foxtail, Giant plant response rating is below 20 take MET; entries at or above 20 take NOT MET.

>>> class_assignment("Nc1nc(-c2ccc(Br)cc2)nc(C(=O)O)c1Br")
"NOT MET"
>>> class_assignment("COC(=O)c1nc(-c2ccc(I)cc2)nc(N)c1Br")
"NOT MET"
>>> class_assignment("COCc1nc(C2CC2)nc(N)c1Br")
"MET"
>>> class_assignment("Nc1nc(C2CC2)nc(C(=O)O)c1Cl")
"NOT MET"
>>> class_assignment("CC(C)COC(=O)c1nc(C2CC2)nc(N)c1Br")
"MET"
>>> class_assignment("COC(=O)Cc1nc(C2CC2)nc(N)c1Br")
"MET"
